biological target: human IDO1 (Homo sapiens, UniProt P14902); test: Assessment of human IDO-1 inhibitory activity in Hela cells (Interferon-gamma stimulated HeLa cells, Ehrlich reagent, absorbance 490 nm); format: cell-based; parameters: endogenous in cells; host or cells: HeLa cells stimulated with interferon-gamma; settings: Hela Human IDO-1 cellular assay
Sequence (P14902 whole entry): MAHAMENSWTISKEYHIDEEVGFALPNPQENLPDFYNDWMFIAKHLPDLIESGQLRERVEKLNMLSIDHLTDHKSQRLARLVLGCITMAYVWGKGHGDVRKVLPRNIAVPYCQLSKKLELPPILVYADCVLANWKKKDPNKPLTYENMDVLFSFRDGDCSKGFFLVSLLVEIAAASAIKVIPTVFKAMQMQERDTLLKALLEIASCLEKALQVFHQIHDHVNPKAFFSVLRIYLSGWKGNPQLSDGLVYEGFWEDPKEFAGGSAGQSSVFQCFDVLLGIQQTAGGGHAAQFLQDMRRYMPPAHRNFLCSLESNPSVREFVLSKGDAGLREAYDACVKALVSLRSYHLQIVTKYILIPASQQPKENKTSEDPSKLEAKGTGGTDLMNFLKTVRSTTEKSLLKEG

COMPOUND	IC50
CCOc1ncc(Nc2cc([C@H](CC)Cc3nnn[nH]3)ccc2N(CC)C2CCOCC2)cn1	< 5 nM
CC[C@@H](CC(=O)O)c1ccc(N(CC)C2CCOCC2)c(Nc2cnc(N(C)C)nc2)c1 (single isomer, unassigned)	< 50 nM
CCN(c1ccc([C@@H](COC)CC(=O)O)cc1Nc1ccc(C#N)cc1C)C1CCOCC1 (single isomer, unassigned)	< 50 nM
CCOc1ncc(Nc2cc(C(CC)CC(=O)O)ccc2N(C)C2CCOCC2)cn1 (single isomer, unassigned)	< 50 nM
COCCN(c1ccc(C(COC)CC(=O)O)cc1NC(=O)Nc1ccc(Cl)cc1F)C1CCOCC1 (single isomer, unassigned)	> 50 nM
CCCOc1ncc(Nc2cc(C(C)CC(=O)O)ccc2N(CC)C2CCOCC2)cn1 (single isomer, unassigned)	< 50 nM

====

biological target: human IDO1 (Homo sapiens, UniProt P14902); assay: Assessment of human IDO-1 inhibitory activity in HEK cells (human IDO1/HEK293 cells, kynurenine read-out with Ehrlich reagent, absorbance 490 nm); assay type: cell-based; set-up: expressed in transfected cells; settings: HEK Human IDO-1 cellular assay
REPORTED_ENDPOINT: IC50

COMPOUND	RECORDED_RESULT
CCC(CC(=O)O)c1ccc(N(CC)C2CCS(=O)(=O)CC2)c(Nc2ccc(C#N)cc2)c1 (single isomer, unassigned) [Example 337]	< 5 nM
CCC(CC(=O)O)c1ccc(N(CC2CC2)C2CCOCC2)c(NC(=O)Nc2ccc(Cl)cc2F)c1 (single isomer, unassigned) [Example 696]	< 5 nM
CC[C@H](CC(=O)O)c1ccc(N(CC(C)C)CC(C)C)c(Nc2ccc3nc(C)sc3c2)c1 (single isomer, unassigned) [Example 10]	> 50 nM
CCOc1ncc(Nc2cc([C@@H](COC)CC(=O)O)ccc2N(CC)C2CCOCC2)cn1 (single isomer, unassigned) [Example 351]	< 50 nM
CC[C@@H](CC(=O)O)c1ccc(N(CC)C2CCOCC2)c(Nc2ccc(OC)nc2)c1 (single isomer, unassigned) [Example 478]	< 5 nM
CCc1ccc(Nc2cc([C@@H](CC)CC(=O)O)ccc2N(CC)C2CCOCC2)cc1 (single isomer, unassigned) [Example 477]	< 5 nM

====

molecular target: human IDO1 (Homo sapiens); test: Assessment of human IDO-1 inhibitory activity in Hela cells (Interferon-gamma stimulated HeLa cells, Ehrlich reagent, absorbance 490 nm); format: cell-based; parameters: endogenous in cells; host or cells: HeLa cells stimulated with interferon-gamma; details: Hela Human IDO-1 cellular assay

COMPOUND	IC50
CCN(c1c(F)cc(C(COC)CC(=O)O)cc1Nc1ccc(C#N)cc1)C1CCOCC1 (single isomer, unassigned) [Example 918]	< 0.05 µM
CCOc1ncc(Nc2cc([C@H](CC)CC(C)(C)O)ccc2N(CC)C2CCOCC2)cn1 (single isomer, unassigned)	> 0.05 µM
CCOc1ncc(Nc2cc([C@H](CC)CNS(=O)(=O)CC)ccc2N(CC)C2CCOCC2)cn1	< 0.05 µM
CCN(c1ccc(C(CC)(CC)CC(=O)O)cc1NC(=O)Nc1ccc(C)cc1)C1CCOCC1	< 0.05 µM

Cited source for all entries: patent US9790169B2
